inhibition at 10 µM for assorted compounds
target: c-Met kinase domain recombinant protein (Homo sapiens, UniProt P08581); construct: 50 μL diluted solution of c-Met kinase domain recombinant protein in reaction buffer was added to initiate the reaction; assay: biochemical; conditions: read-out: Inhibition rate at 10 μM (%)
Sequence (P08581 1078-1345 limits assumed): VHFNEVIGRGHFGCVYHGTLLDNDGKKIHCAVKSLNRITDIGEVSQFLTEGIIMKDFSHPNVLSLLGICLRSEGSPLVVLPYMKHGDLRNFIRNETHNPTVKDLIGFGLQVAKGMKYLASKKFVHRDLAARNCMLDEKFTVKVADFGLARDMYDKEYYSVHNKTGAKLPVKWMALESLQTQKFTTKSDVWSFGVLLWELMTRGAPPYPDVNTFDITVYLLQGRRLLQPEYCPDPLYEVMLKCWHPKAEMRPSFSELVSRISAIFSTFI
READOUT: inhibition at 10 µM (%)

COMPOUND	COMPARATOR	MEASURED
Cn1cc(-c2cnc3cnn(S(=O)(=O)c4cnc5ccc(-c6ccc7c(c6)OCCO7)cn45)c3c2)cn1 [Example 93]	>	64.5
CC(=O)c1ccc(-c2cnc3cnn(S(=O)(=O)c4cnc5ccccn45)c3c2)cc1 [Example 40]	=	66
O=S(=O)(c1cnc2ccccn12)n1ncc2ncc(-c3ccsc3)cc21 [Example 29]	=	65.7
Cn1cc(-c2cnc3cnn(S(=O)(=O)c4cnc5ccc(-c6ccc(C(F)(F)F)cc6)cn45)c3c2)cn1 [Example 77]	>	76.9
